- Tested on: TDF;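 further: TDF is a line of transformed human dermal fibroblasts of mesenchymal origin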
- measurement_notes: H1.0 immunofluorescence intensity relative to DMSO (% of DMSO); higher = stronger H1.0 induction, active = 120 or more
- assay_setup: concentration: 10 µM; 24 h
readout_name: H1.0 immunofluorescence intensity
Respond numerically, and do not add a unit to the figure.

Answered examples (6):
{"molecule": "CC(=O)OC1CC2(C)C(CC(O)C3C4(C)CCC(O)C(C)C4CCC32C)C1=C(CCC=C(C)C)C(=O)[O-].[Na+] (configuration not stated) [Fusidic acid sodium]", "H1.0 immunofluorescence intensity": 89.5}
{"molecule": "CC(c1cc2ccccc2s1)N(O)C(N)=O (configuration not stated)", "H1.0 immunofluorescence intensity": 94.2}
{"molecule": "O=c1onc2n1-c1cc(Br)ccc1OC2", "H1.0 immunofluorescence intensity": 94}
{"molecule": "COc1ccc(Cl)cc1NC(=O)Nc1cc(C)nc2ccccc12 [N-(5-Chloro-2-methoxyphenyl)-N'-(2-methyl-4-quinolinyl)urea]", "H1.0 immunofluorescence intensity": 104}
{"molecule": "COC1=C(OC)C(=O)c2ccccc2C1=O", "H1.0 immunofluorescence intensity": 114}
{"molecule": "CCN1CCc2nc(N)oc2CC1.Cl.Cl [B-HT 933 dihydrochloride]", "H1.0 immunofluorescence intensity": 97}

Here is another molecule to look at.
Lab note: measured H1.0 immunofluorescence intensity of CCCCCC(O)C=CC1C(O)CC(O)C1CC=CCCCC(=O)O (configuration not stated) [Prostaglandin F2a] was 97.6
